Just for reference, ChEMBL document CHEMBL1149180 is where these values come from.

Provide the reported log10(IC50) of each item.
Molecular target: Prostaglandin G/H synthase 2 (Homo sapiens, UniProt P35354)
Sequence (P35354 whole entry): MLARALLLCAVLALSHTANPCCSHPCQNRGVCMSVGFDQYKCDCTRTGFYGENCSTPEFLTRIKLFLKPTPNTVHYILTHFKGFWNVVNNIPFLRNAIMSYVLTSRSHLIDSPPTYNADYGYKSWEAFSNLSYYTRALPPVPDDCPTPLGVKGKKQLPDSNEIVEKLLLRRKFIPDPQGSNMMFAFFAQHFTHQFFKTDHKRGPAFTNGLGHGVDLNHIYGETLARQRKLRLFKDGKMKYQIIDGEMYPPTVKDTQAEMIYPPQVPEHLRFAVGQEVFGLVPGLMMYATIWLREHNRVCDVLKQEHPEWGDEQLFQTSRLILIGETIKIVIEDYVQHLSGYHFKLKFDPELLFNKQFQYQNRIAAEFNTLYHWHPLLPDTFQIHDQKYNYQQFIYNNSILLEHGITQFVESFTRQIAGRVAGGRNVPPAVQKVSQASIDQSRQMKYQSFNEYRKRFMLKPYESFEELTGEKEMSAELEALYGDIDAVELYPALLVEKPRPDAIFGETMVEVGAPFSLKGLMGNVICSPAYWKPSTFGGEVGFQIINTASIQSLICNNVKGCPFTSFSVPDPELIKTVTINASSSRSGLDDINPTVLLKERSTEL
Experiment: Inhibition concentration against cyclooxygenase-2 (COX-2) in human whole blood
Give log10 of IC50, with IC50 taken in nM.

Please review the entries below; each comes with its answer.
Cc1cc(=O)c(Oc2ccc(Cl)cc2C)c(-c2ccc(S(C)(=O)=O)cc2)o1 :: 2.28
Cc1cc(=O)c(Oc2ccc(F)cc2F)c(-c2ccc(S(C)(=O)=O)cc2)o1 :: 1.90
COc1ccc(Oc2c(-c3ccc(S(C)(=O)=O)cc3)oc(C)cc2=O)c(Cl)c1 :: 2.26
Cc1cc(=O)c(-c2cccc(F)c2)c(-c2ccc(S(C)(=O)=O)cc2)o1 :: 3.53
Cc1cc(=O)c(Oc2ccc([N+](=O)[O-])cc2)c(-c2ccc(S(C)(=O)=O)cc2)o1 :: 3.60

For each listed entry, give its log10(IC50).
1. Cc1cc(=O)c(-c2ccc(C(F)(F)F)cc2)c(-c2ccc(S(C)(=O)=O)cc2)o1
2. Cc1cc(=O)c(-c2ccc3ccccc3c2)c(-c2ccc(S(C)(=O)=O)cc2)o1
3. Cc1cc(=O)c(-c2ccc(Br)cc2)c(-c2ccc(S(C)(=O)=O)cc2)o1
4. Cc1cc(=O)c(C(C)C)c(-c2ccc(S(C)(=O)=O)cc2)o1

Reply:
[3.84, 3.41, 3.24, 3.82]

Provide reported log10(IC50) for each item, in the same order as listed.
1. Cc1cc(=O)c(Oc2ccccc2)c(-c2ccc(S(C)(=O)=O)cc2)o1
2. Cc1cc(=O)c(Oc2ccc(I)cc2)c(-c2ccc(S(C)(=O)=O)cc2)o1
3. Cc1cc(=O)c(-c2ccccc2F)c(-c2ccc(S(C)(=O)=O)cc2)o1
4. Cc1cc(=O)c(-c2ccccc2)c(-c2ccc(S(C)(=O)=O)cc2)o1

Reply:
1: 3.00; 2: 2.61; 3: 3.18; 4: 3.26

Consider the following items and state reported log10(IC50) for each.
1. Cc1cc(=O)c(-c2ccc(Cl)cc2F)c(-c2ccc(S(C)(=O)=O)cc2)o1
2. Cc1cc(=O)c(Oc2ccc(Br)cc2)c(-c2ccc(S(C)(=O)=O)cc2)o1

Reply:
[3.31, 2.56]
